Test system: rats subjected to adrenalectomy (granuloma around implanted cotton wads)
assay: granulom test (cotton-pellet test) on rats subjected to adrenalectomy: granuloma growth, thymus weight, body weight increase
Format: in vivo, rat (Sprague-Dawley)
protocol_conditions: rat, in vivo, 11520 min
assay_endpoint: Dose required to obtain 25% inhibition of Body weight Increase

- CCCC1O[C@@H]2C[C@H]3[C@@H]4CCC5=CC(=O)C=C[C@]5(C)[C@H]4[C@@H](O)C[C@]3(C)[C@]2(C(=O)CO)O1 (stereo partly shown) [12 A+B]: 80 γ/animal
- CCCC1O[C@@H]2C[C@H]3[C@@H]4C[C@H](F)C5=CC(=O)C=C[C@]5(C)[C@@]4(F)[C@@H](O)C[C@]3(C)[C@]2(C(=O)COC(=O)c2cc3ccccc3o2)O1 (single isomer, unassigned) [25 A]: 20 γ/animal
- CCCC1O[C@@H]2C[C@H]3[C@@H]4CCC5=CC(=O)C=C[C@]5(C)[C@@]4(F)[C@@H](O)C[C@]3(C)[C@]2(C(=O)COC(=O)c2cc3ccccc3o2)O1 (single isomer, unassigned) [20 A]: 50 γ/animal

In plain terms, CCCC1O[C@@H]2C[C@H]3[C@@H]4CCC5=CC(=O)C=C[C@]5(C)[C@@]4(F)[C@@H](O)C[C@]3(C)[C@]2(C(=O)COC(=O)c2cccnc2)O1 (single isomer, unassigned) [21 A] has a documented Dose required to obtain 25% inhibition of Body weight Increase of 70 γ/animal

* * *

Quick reference: Therapeutic ratio thymus/granuloma of the listed items.
System: rats subjected to adrenalectomy (granuloma around implanted cotton wads)
assay: granulom test (cotton-pellet test) on rats subjected to adrenalectomy: granuloma growth, thymus weight, body weight increase
Format: in vivo, rat (Sprague-Dawley)
protocol_conditions: Table 4; ED50 thymus weight inhibition divided by ED50 granuloma formation inhibition

Please review the following examples before continuing.
* CC1O[C@@H]2C[C@H]3[C@@H]4C[C@H](F)C5=CC(=O)C=C[C@]5(C)[C@@]4(F)[C@@H](O)C[C@]3(C)[C@]2(C(=O)COC(=O)c2cc3ccccc3o2)O1 (stereo partly shown) [23 B] | > 1.3
* CC1O[C@@H]2C[C@H]3[C@@H]4C[C@H](F)C5=CC(=O)C=C[C@]5(C)[C@@]4(F)[C@@H](O)C[C@]3(C)[C@]2(C(=O)COC(=O)c2cc3ccccc3o2)O1 (stereo partly shown) [23 A] | > 3.3
* CC1O[C@@H]2C[C@H]3[C@@H]4CCC5=CC(=O)C=C[C@]5(C)[C@@]4(F)[C@@H](O)C[C@]3(C)[C@]2(C(=O)COC(=O)c2cc3ccccc3o2)O1 (stereo partly shown) [16 B] | 3.3

Let us move to another entry and its Therapeutic ratio thymus/granuloma.
Entry CC1O[C@@H]2C[C@H]3[C@@H]4CCC5=CC(=O)C=C[C@]5(C)[C@@]4(F)[C@@H](O)C[C@]3(C)[C@]2(C(=O)COC(=O)c2cc3ccccc3o2)O1 (stereo partly shown) [16 A] — recorded Therapeutic ratio thymus/granuloma = 14.0

* * *

Test system: rats subjected to adrenalectomy (granuloma around implanted cotton wads)
assay: granulom test (cotton-pellet test) on rats subjected to adrenalectomy: granuloma growth, thymus weight, body weight increase
Assay type: in vivo, rat (Sprague-Dawley)
protocol_conditions: Table 3; adrenalectomized young male Sprague-Dawley rats, topical in implanted cotton wads, day 8
assay_endpoint: Dose required to obtain 50% inhibition of Granuloma growth

Solved entries (count: 3):
- CCCC1O[C@@H]2C[C@H]3[C@@H]4CCC5=CC(=O)C=C[C@]5(C)[C@H]4[C@@H](O)C[C@]3(C)[C@]2(C(=O)COC(C)=O)O1 (single isomer, unassigned) [27 A]: < 3 γ/animal
- CC1O[C@@H]2C[C@H]3[C@@H]4CCC5=CC(=O)C=C[C@]5(C)[C@@]4(F)[C@@H](O)C[C@]3(C)[C@]2(C(=O)CO)O1 (some centres unmarked) [1 A+B]: 120 γ/animal
- CCC1O[C@@H]2C[C@H]3[C@@H]4CCC5=CC(=O)C=C[C@]5(C)[C@@]4(F)[C@@H](O)C[C@]3(C)[C@]2(C(=O)CO)O1 (single isomer, unassigned) [2 B]: 10 γ/animal

The recorded Dose required to obtain 50% inhibition of Granuloma growth for entry CC1(C)O[C@@H]2C[C@H]3[C@@H]4CCC5=CC(=O)C=C[C@]5(C)[C@H]4[C@@H](O)C[C@]3(C)[C@]2(C(=O)CO)O1 [Prednacinolone acetonide, reference compound] equals 270 γ/animal

Item: CCCC1O[C@@H]2C[C@H]3[C@@H]4C[C@H](F)C5=CC(=O)C=C[C@]5(C)[C@@]4(F)[C@@H](O)C[C@]3(C)[C@]2(C(=O)COC(=O)c2cc3ccccc3o2)O1 (single isomer, unassigned) [25 A] | Dose required to obtain 50% inhibition of Granuloma growth: < 3 γ/animal
